- System: LXFL 529 NSCLC
- ASSAY: NCI tumour cell line growth inhibition, 48 h
PARAMETER MEASURED: TGI

Illustrative cases are given below, each with its answer.
O=C(O)C(CO)NC(=O)n1c2ccccc2c2ccccc21 (stereo unspecified) = > 100 µM
C=CCOCCCCC(C(C)=O)C(=O)OC (stereo unspecified) = > 100 µM
COC(=O)/C(=N/NC(=O)C[N+](C)(C)C)C(C(=O)OC)C(=O)C(=O)Nc1ccc(F)cc1 (stereo unspecified) = > 100 µM
CCc1ccc(/C=C\c2cc(OC)c(OC)c(OC)c2)cc1 = 27.3 µM
CCC[CH2][Sn]([CH2]CCC)([O]C(=O)c1cccnc1SC)[O]C(=O)c1cccnc1SC = 0.238 µM

We next turn to a different molecule, shown below.
Input line: Please give the documented TGI of "N#Cc1cc([N+](=O)[O-])ccc1NC(=O)C(=O)Nc1n[nH]c(N)n1"
Output line: > 100 µM
